Every entry's value here was drawn from patent US11414416B1.

molecules and their reported DC50
molecular target: Nanoluciferase-BRD9 fusion protein (Homo sapiens (Human), UniProt Q9H8M2); experiment: SYO1 BRD9 NanoLuc degradation assay; assay type: cell-based; settings: Table 5C; SYO-1 cells expressing 3×FLAG-NLuc-BRD9, 6 hours; read-out: SYO1 BRD9-NanoLuc degradation IC50
Sequence (Q9H8M2 whole entry, the tested form may be a part): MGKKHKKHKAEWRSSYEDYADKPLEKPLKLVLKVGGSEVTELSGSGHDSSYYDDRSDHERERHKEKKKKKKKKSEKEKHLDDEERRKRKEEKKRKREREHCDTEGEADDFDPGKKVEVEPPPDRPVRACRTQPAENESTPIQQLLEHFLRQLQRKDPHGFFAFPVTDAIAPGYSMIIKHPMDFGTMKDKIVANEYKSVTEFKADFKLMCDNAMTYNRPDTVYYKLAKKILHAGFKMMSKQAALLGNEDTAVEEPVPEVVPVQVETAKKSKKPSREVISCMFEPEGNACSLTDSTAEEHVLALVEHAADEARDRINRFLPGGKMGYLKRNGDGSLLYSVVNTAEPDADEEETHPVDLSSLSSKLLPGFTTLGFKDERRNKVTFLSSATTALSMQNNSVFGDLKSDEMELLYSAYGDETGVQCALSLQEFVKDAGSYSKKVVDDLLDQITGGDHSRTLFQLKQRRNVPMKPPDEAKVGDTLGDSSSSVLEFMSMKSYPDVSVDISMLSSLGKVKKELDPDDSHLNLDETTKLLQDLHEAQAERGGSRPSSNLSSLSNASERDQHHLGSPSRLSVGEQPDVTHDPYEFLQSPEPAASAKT

Recorded results for 3 molecules are shown here.
molecule	result
COc1cc(-c2cc(C)cc3ccccc23)cc(OC)c1CN1CCC(CN2CCC3(CC2)CC(Oc2ccc4c(c2)C(=O)N(C2CCC(=O)NC2=O)C4=O)C3)CC1 (stereo not shown)	> 1000 nM
C/C=C/Cn1cc(-c2cc(OC)c(CN3CCC4(CC3)CN(c3ccc5c(c3)C(=O)N(C3CCC(=O)NC3=O)C5)C4)c(OC)c2)c2cc(C)[nH]c2c1=O (stereo not shown)	> 1000 nM
COc1cc(-c2cn(C)c(=O)cc2C)cc(OC)c1CN1CCN(c2ccc3c(c2)C(=O)N(C2CCC(=O)NC2=O)C3=O)CC1 (stereo not shown)	< 10 nM

We now examine a further molecule.
stdin: # query: DC50 of entry COc1cc(-c2cn(C)c(=O)c3cnccc23)cc(OC)c1CN1CCC2(CC1)CN(c1cncc(C(=O)NC3CCC(=O)NC3=O)n1)C2 (stereo not shown)
stdout: > 1000 nM

---

compounds and their reported IC50
molecular target: BRD9 bromodomain (Homo sapiens (Human)); test: BRD9 bromodomain TR-FRET competition binding assay; conditions: Table 4; competition with biotinylated ligand, 3 nM Flag-BRD9, 90 minutes
Sequence (Q9H8M2 133-239): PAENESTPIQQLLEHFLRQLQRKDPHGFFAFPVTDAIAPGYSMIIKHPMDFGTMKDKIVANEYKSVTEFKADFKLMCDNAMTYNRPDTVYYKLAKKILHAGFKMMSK

Recorded results for 5 compounds are shown here.
compound	value-type	result
COc1cc(-c2cn(C)c(=O)c3cnccc23)cc(OC)c1CN1CCC(OC2CCN(C(=O)CCOCCOc3ccc4c(c3)C(=O)N(C3CCC(=O)NC3=O)C4=O)CC2)CC1 (centres unmarked) [Compound D131]	IC50	< 10 nM
COc1cc(-c2cn(C)c(=O)c3cnccc23)cc(OC)c1CNCCOCC(=O)N1CC(COc2ccc3c(c2)C(=O)N(C2CCC(=O)NC2=O)C3=O)C1 (centres unmarked) [Compound D74, formic acid]	IC50	< 10 nM
COc1cc(-c2cn(C)c(=O)c3cnccc23)cc(OC)c1CN1CC2C1CCN2C(=O)CCOCCOc1ccc2c(c1)C(=O)N(C1CCC(=O)NC1=O)C2=O (centres unmarked) [Compound D128]	IC50	10 to 100 nM
COc1cc(-c2cn(C)c(=O)c3cnccc23)cc(OC)c1CN1CC2(CCN(C(=O)CCOCCOc3ccc4c(c3)C(=O)N(C3CCC(=O)NC3=O)C4=O)CC2)C1 (centres unmarked) [Compound D118]	IC50	< 10 nM
COc1cc(-c2cn(C)c(=O)c3cnccc23)cc(OC)c1CN1CC(S(=O)(=O)NCCCCCNc2ccc3c(c2)C(=O)N(C2CCC(=O)NC2=O)C3=O)C1 (centres unmarked) [Compound D23]	IC50	< 10 nM

stdin: # query: IC50 of entry COc1cc(-c2cn(C)c(=O)c3cnccc23)cc(OC)c1CN(C)CCCN1CCC(Oc2ccc3c(c2)C(=O)N(C2CCC(=O)NC2=O)C3=O)CC1 (centres unmarked) [Compound D52, formic acid]
stdout: < 10 nM

stdin: # query: IC50 of entry COc1cc(-c2cn(C)c(=O)c3cnccc23)cc(OC)c1CN1CC2(C1)CN(C(=O)CCCCOc1cccc3c1C(=O)N(C1CCC(=O)NC1=O)C3=O)C2 (centres unmarked) [Compound D34]
stdout: < 10 nM

stdin: # query: IC50 of entry COc1cc(-c2cn(C)c(=O)c3cnccc23)cc(OC)c1CN1CC(C(=O)NCCOCCOCCNc2cccc3c2C(=O)N(C2CCC(=O)NC2=O)C3=O)C1 (centres unmarked) [Compound D7, formic acid]
stdout: < 10 nM

stdin: # query: IC50 of entry COc1cc(-c2cn(C)c(=O)c3cnccc23)cc(OC)c1CN1CCC2(CCN(C(=O)CCOCCOc3ccc4c(c3)C(=O)N(C3CCC(=O)NC3=O)C4=O)C2)C1 (centres unmarked) [Compound D121]
stdout: 10 to 100 nM

stdin: # query: IC50 of entry COc1cc(-c2cn(C)c(=O)c3cnccc23)cc(OC)c1CN1CCC2(C1)CN(C(=O)CCOCCOc1cccc3c1C(=O)N(C1CCC(=O)NC1=O)C3=O)C2 (centres unmarked) [Compound D87]
stdout: < 10 nM

stdin: # query: IC50 of entry COc1cc(-c2cn(C)c(=O)c3cnccc23)cc(OC)c1CN(C)CC12CC(C(=O)NCCCCCNc3cccc4c3C(=O)N(C3CCC(=O)NC3=O)C4=O)(C1)C2 (centres unmarked) [Compound D56]
stdout: < 10 nM

---

target: Nanoluciferase-BRD9 fusion protein (Homo sapiens (Human), UniProt Q9H8M2); test: SYO1 BRD9 NanoLuc degradation assay; assay type: cell-based; settings: Table 5B; SYO-1 cells expressing 3×FLAG-NLuc-BRD9, 6 hours; read-out: SYO1 BRD9-NanoLuc degradation IC50
value-type: DC50

molecule	DC50
COc1cc(-c2cn(C)c(=O)c3cnccc23)cc(OC)c1CN1CC2(CCN(C(=O)C#Cc3ccc4c(c3)C(=O)N(C3CCC(=O)NC3=O)C4=O)CC2)C1 (stereo not drawn) [Compound D198]	< 10 nM
COc1cc(-c2cn(C)c(=O)c3cnccc23)cc(OC)c1CN(C)C(=O)CCCCN1CCC2(CC1)CC(Oc1ccc3c(c1)C(=O)N(C1CCC(=O)NC1=O)C3=O)C2 (stereo not drawn) [Compound D208]	< 10 nM

We now examine a further molecule.
stdin: # query: DC50 of entry COc1cc(-c2cn(C)c(=O)c3cnccc23)cc(OC)c1CN(C)C(=O)CCCCN1CCC2(CC1)CCN(c1ccc3c(c1)C(=O)N(C1CCC(=O)NC1=O)C3=O)C2 (stereo not drawn) [Compound D202]
stdout: < 10 nM

---

target: Nanoluciferase-BRD9 fusion protein (Homo sapiens (Human)); test: SYO1 BRD9 NanoLuc degradation assay; assay type: cell-based; details: Table 5A; SYO-1 cells expressing 3×FLAG-NLuc-BRD9, 6 hours
value-type: IC50

Recorded results for 6 compounds are shown here.
compound	result
COc1cc(-c2cn(C)c(=O)c3cnccc23)cc(OC)c1CN1CCN(C(=O)CCCOc2cccc3c2C(=O)N(C2CCC(=O)NC2=O)C3=O)CC1 (stereo not shown)	< 10 nM
COc1cc(-c2cn(C)c(=O)c3cnccc23)cc(OC)c1CN(C)C12CC(NC(=O)CCCCCOc3cccc4c3C(=O)N(C3CCC(=O)NC3=O)C4=O)(C1)C2 (stereo not shown)	< 10 nM
COc1cc(-c2cn(C)c(=O)c3cnccc23)cc(OC)c1CN1CC2(CCC2NC(=O)CCOCCOc2ccc3c(c2)C(=O)N(C2CCC(=O)NC2=O)C3=O)C1 (stereo not shown)	100 to 1000 nM
COc1cc(-c2cn(C)c(=O)c3cnccc23)cc(OC)c1CN1CCC2(CCN(C(=O)CCOCCOc3ccc4c(c3)C(=O)N(C3CCC(=O)NC3=O)C4=O)CC2)C1 (stereo not shown)	10 to 100 nM
COc1cc(-c2cn(C)c(=O)c3cnccc23)cc(OC)c1CN1CC(S(=O)(=O)NCCCCCCNc2ccc3c(c2)C(=O)N(C2CCC(=O)NC2=O)C3=O)C1 (stereo not shown)	< 10 nM
COc1cc(-c2cn(C)c(=O)c3cnccc23)cc(OC)c1CN(C)C1CCC12CCN(C(=O)CCOCCOc1ccc3c(c1)C(=O)N(C1CCC(=O)NC1=O)C3=O)CC2 (stereo not shown)	< 10 nM

We now examine a further compound.
stdin: # query: IC50 of entry COc1cc(-c2cn(C)c(=O)c3cnccc23)cc(OC)c1CN1CC2(CCC2NC(=O)CCOCCOc2cccc3c2C(=O)N(C2CCC(=O)NC2=O)C3=O)C1 (stereo not shown)
stdout: > 1000 nM

---

molecules and their reported DC50
target: Nanoluciferase-BRD9 fusion protein (Homo sapiens (Human)); assay: SYO1 BRD9 NanoLuc degradation assay; format: cell-based; conditions: Table 5B; SYO-1 cells expressing 3×FLAG-NLuc-BRD9, 6 hours; read-out: SYO1 BRD9-NanoLuc degradation IC50

molecule	DC50
COc1cc(-c2cc(C(F)F)c(=O)n(C)c2)cc(OC)c1CN1CCC2(CC1)CN(c1ccc3c(c1)C(=O)N(C1CCC(=O)NC1=O)C3=O)C2 (centres unmarked)	< 10 nM
COc1cc(-c2cn(C)c(=O)c3cnccc23)cc(OC)c1CN1CCC2(C1)CN(CC#Cc1ccc3c(c1)C(=O)N(C1CCC(=O)NC1=O)C3=O)C2 (centres unmarked)	< 10 nM

We now examine a further molecule.
stdin: # query: DC50 of entry COc1cc(-c2cn(C)c(=O)c3cnccc23)cc(OC)c1CN(C)CCN(C)CCNC(=O)COc1ccc2c(c1)C(=O)N(C1CCC(=O)NC1=O)C2=O (centres unmarked)
stdout: 100 to 1000 nM

---

target: Nanoluciferase-BRD9 fusion protein (Homo sapiens (Human), UniProt Q9H8M2); test: SYO1 BRD9 NanoLuc degradation assay; type: cell-based; details: Table 5A; SYO-1 cells expressing 3×FLAG-NLuc-BRD9, 6 hours
compounds and their reported IC50

compound	IC50
COc1cc(-c2cn(C)c(=O)c3cnccc23)cc(OC)c1CN1CC(S(=O)(=O)NCCCCCCCCNc2cccc3c2C(=O)N(C2CCC(=O)NC2=O)C3=O)C1 (stereo not shown)	< 0.01 µM
COc1cc(-c2cn(C)c(=O)c3cnccc23)cc(OC)c1CN(C)CC1CC2(CCN(C(=O)CCOCCOc3cccc4c3C(=O)N(C3CCC(=O)NC3=O)C4=O)CC2)C1 (stereo not shown)	0.01 to 0.1 µM
COc1cc(-c2cn(C)c(=O)c3cnccc23)cc(OC)c1CN1CCC2(CC1)CN(C(=O)CCCCOc1cccc3c1C(=O)N(C1CCC(=O)NC1=O)C3=O)CCO2 (stereo not shown)	< 0.01 µM

stdin: # query: IC50 of entry COc1cc(-c2cn(C)c(=O)c3cnccc23)cc(OC)c1CN1CC(C(=O)NCCCCCNc2cccc3c2C(=O)N(C2CCC(=O)NC2=O)C3=O)C1 (stereo not shown)
stdout: < 0.01 µM

stdin: # query: IC50 of entry COc1cc(-c2cn(C)c(=O)c3cnccc23)cc(OC)c1CN1CC(C(=O)N(C)CCCCCNc2cccc3c2C(=O)N(C2CCC(=O)NC2=O)C3=O)C1 (stereo not shown)
stdout: < 0.01 µM
